In this section we review reported pIC50 values for a set of compounds.
- system name: A17 RT (Human immunodeficiency virus type 1 group M subtype B, UniProt P04585, K690N/Y768C)
- Construct: A17 RT was employed in the assay
- procedure summary: biochemical
Conceptually, pIC50 converts a concentration in mol/L into minus its log10.

CCCC1(C2CC2)OC(=O)Nc2ccc(Cl)cc21 (centres unmarked) [Compound 28]: 3.94

For record Cc1ccc(C#CC2(C(F)(F)F)OC(=O)Nc3ccc(Cl)cc32)cc1 (centres unmarked) [Compound 8] the listed pIC50 is 5.07

For record CCCC1(C2CC2)OC(=S)Nc2ccc(Cl)cc21 (centres unmarked) [Compound 40] the listed pIC50 is 4.54

For record COCC#CC1(C2CC2)OC(=O)Nc2ccc(Cl)cc21 (centres unmarked) [Compound 30] the listed pIC50 is 5.52

Where these numbers come from: patent US5519021A
